Target: Bile acid receptor (Homo sapiens, UniProt Q96RI1)
Sequence (Q96RI1 whole entry): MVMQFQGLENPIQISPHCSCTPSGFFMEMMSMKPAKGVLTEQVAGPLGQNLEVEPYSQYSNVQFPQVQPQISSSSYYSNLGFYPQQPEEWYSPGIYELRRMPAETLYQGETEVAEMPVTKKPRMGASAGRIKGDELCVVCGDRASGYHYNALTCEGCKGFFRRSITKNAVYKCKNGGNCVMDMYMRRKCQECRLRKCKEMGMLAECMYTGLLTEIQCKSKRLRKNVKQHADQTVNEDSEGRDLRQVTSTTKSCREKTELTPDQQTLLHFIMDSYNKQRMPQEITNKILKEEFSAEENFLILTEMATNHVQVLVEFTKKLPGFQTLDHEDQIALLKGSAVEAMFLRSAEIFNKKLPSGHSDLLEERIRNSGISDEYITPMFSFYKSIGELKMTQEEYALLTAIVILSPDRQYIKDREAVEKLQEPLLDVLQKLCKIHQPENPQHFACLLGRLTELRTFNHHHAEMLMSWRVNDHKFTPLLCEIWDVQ
Assay: Agonist activity at GST-tagged FXR LBD (187 to 472 residues) (unknown origin) assessed as FXR interaction with b-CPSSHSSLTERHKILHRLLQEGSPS-COOH by FRET assay

| COMPOUND | EC50, nM |
| --- | --- |
| Clc1cc(OCc2c(-c3c(Cl)cccc3Cl)noc2C2CC2)ccc1C1CC1c1ccc(-c2nnn[nH]2)nc1 (stereo not drawn) | 131 |
| O=C(O)c1ccc(C2CC2c2ccc(OCc3c(-c4c(Cl)cccc4Cl)noc3C3CC3)cc2Cl)cc1 (racemic) | 131 |
| O=C(O)c1cccc([C@H]2C[C@@H]2c2ccc(OCc3c(-c4c(Cl)cccc4Cl)noc3C3CC3)cc2Cl)c1 | 219 |
| Cn1nc(C(=O)O)c2ccc(C3CC3c3ccc(OCc4c(-c5c(Cl)cccc5Cl)noc4C4CC4)cc3Cl)cc21 (racemic) | 13 |
| CS(=O)(=O)NC(=O)c1ccc([C@@H]2C[C@H]2c2ccc(OCc3c(-c4c(Cl)cccc4Cl)noc3C3CC3)cc2Cl)cc1 | 48 |
| O=C(O)c1cncc(C2CC2c2ccc(OCc3c(-c4c(Cl)cccc4Cl)noc3C3CC3)cc2Cl)c1 (stereo not drawn) | 10 |
| CC(C)n1nc(C(=O)O)cc1[C@@H]1C[C@H]1c1ccc(OCc2c(-c3c(Cl)cccc3Cl)noc2C2CC2)cc1Cl | 4 |
| O=C(O)c1cncc(N2CC(O)(c3ccc(OCc4c(-c5c(Cl)cccc5Cl)noc4C4CC4)cc3Cl)C2)c1 | 7 |

----------
Molecular target: Bile acid receptor (Homo sapiens) (UniProt Q96RI1)
Sequence (whole entry): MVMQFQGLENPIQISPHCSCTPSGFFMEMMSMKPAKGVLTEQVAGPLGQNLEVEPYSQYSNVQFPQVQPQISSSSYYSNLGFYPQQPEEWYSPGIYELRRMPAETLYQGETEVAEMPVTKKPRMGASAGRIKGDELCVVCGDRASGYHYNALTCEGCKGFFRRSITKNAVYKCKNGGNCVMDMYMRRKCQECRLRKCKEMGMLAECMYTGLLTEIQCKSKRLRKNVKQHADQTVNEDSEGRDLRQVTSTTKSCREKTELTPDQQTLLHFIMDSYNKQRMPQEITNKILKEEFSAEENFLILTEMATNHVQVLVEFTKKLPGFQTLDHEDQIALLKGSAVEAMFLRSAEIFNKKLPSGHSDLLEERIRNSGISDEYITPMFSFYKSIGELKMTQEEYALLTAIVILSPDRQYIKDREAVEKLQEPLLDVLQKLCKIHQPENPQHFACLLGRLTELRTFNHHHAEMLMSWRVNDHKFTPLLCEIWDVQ
Test: Agonist activity at C-terminal Gal4-tagged human FXR (187 to 472 residues) expressed in HEK-293 cells co-expressing pFRluc by mammalian one hybrid assay relative to GW4064
Assay type: cell-based
Conditions: HEK293

| MOLECULE | TARGET | Efficacy, % |
| --- | --- | --- |
| O=C(O)c1ccc([C@H]2C[C@](O)(c3ccc(OCc4c(-c5c(Cl)cccc5Cl)noc4C4CC4)cc3Cl)C2)cc1 | Bile acid receptor (Homo sapiens) (UniProt Q96RI1) | 71 |
| O=C(O)c1cccc([C@H]2C[C@H](c3ccc(OCc4c(-c5c(Cl)cccc5Cl)noc4C4CC4)cc3Cl)C2)c1 | Bile acid receptor (Homo sapiens) (UniProt Q96RI1) | 89 |
| O=C(O)c1cncc(N2CC(O)(c3ccc(OCc4c(-c5c(Cl)cccc5Cl)noc4C4CC4)cc3Cl)C2)c1 | Bile acid receptor (Homo sapiens) (UniProt Q96RI1) | 71 |
| O=C(O)c1cccc([C@H]2C[C@](OCCO)(c3ccc(OCc4c(-c5c(Cl)cccc5Cl)noc4C4CC4)cc3Cl)C2)c1 | Bile acid receptor (Homo sapiens) (UniProt Q96RI1) | 68 |
| CS(=O)(=O)NC(=O)c1ccc(C2CC2c2ccc(OCc3c(-c4c(Cl)cccc4Cl)noc3C3CC3)cc2Cl)cc1 (racemic) | Bile acid receptor (Homo sapiens) (UniProt Q96RI1) | 88 |
| O=C(O)c1ccc([C@H]2C[C@@H]2c2ccc(OCc3c(-c4c(Cl)cccc4Cl)noc3C3CC3)cc2Cl)cc1 | Bile acid receptor (Homo sapiens) (UniProt Q96RI1) | 71 |
| O=C(O)c1cccc([C@H]2C[C@@H]2c2ccc(OCc3c(-c4c(Cl)cccc4Cl)noc3C3CC3)cc2Cl)c1 | Bile acid receptor (Homo sapiens) (UniProt Q96RI1) | 88 |
| O=C(O)c1cccc([C@H]2C[C@@H](c3ccc(OCc4c(-c5c(Cl)cccc5Cl)noc4C4CC4)cc3Cl)C2)c1 | Bile acid receptor (Homo sapiens) (UniProt Q96RI1) | 88 |
| CCO[C@]1(c2ccc(OCc3c(-c4c(Cl)cccc4Cl)noc3C3CC3)cc2Cl)C[C@H](c2cccc(C(=O)O)c2)C1 | Bile acid receptor (Homo sapiens) (UniProt Q96RI1) | 89 |
| O=C(O)c1ccc([C@@H]2C[C@H]2c2ccc(OCc3c(-c4c(Cl)cccc4Cl)noc3C3CC3)cc2Cl)cc1 | Bile acid receptor (Homo sapiens) (UniProt Q96RI1) | 89 |
| O=C(O)c1ccc(C2CC2c2ccc(OCc3c(-c4c(Cl)cccc4Cl)noc3C3CC3)cc2Cl)cn1 (stereo unspecified) | Bile acid receptor (Homo sapiens) (UniProt Q96RI1) | 68 |
